TESTED_TARGET: TBK1 (Homo sapiens (Human))
Sequence (Q9UHD2 whole entry): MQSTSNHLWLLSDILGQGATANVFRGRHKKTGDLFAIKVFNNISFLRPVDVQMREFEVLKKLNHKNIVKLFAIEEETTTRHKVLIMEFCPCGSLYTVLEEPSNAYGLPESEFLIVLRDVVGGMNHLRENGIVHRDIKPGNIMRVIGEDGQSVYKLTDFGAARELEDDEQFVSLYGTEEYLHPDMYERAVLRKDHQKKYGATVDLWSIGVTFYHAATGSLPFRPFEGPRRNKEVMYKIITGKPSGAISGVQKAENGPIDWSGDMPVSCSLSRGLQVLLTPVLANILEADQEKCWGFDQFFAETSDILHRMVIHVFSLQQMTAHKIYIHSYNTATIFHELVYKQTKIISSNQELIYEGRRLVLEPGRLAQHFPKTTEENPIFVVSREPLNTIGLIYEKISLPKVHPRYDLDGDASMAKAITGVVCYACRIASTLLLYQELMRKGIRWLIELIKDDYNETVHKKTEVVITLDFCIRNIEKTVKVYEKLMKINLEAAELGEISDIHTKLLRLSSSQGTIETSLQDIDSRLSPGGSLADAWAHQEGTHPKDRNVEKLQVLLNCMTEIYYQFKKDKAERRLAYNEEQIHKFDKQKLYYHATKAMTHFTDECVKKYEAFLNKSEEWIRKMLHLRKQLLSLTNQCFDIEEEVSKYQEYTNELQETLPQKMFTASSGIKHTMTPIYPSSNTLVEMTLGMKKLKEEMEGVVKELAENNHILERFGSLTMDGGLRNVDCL
PROCEDURE_DETAILS: Lanthascreen TR-FRET kinase inhibition assay, TBK1
Format: biochemical
TEST_CONDITIONS: 20 μM ATP (apparent Km), 8 nM kinase, 2.5 h
# maps each entry to its IC50

Previously resolved entries follow.
>  <SMI>
CN1CCC(Nc2ccc(Nc3nccc(-c4cnc(N5CC[C@H](F)C5)c(C#N)c4)n3)cn2)CC1

>  <IC50>
< 30 nM

$$$$
>  <SMI>
CC(C)N1CCN(CC(=O)Nc2ccc(Nc3nccc(-c4cnc(N5CC[C@H](F)C5)c(C#N)c4)n3)cn2)CC1

>  <IC50>
< 30 nM

$$$$
>  <SMI>
N#Cc1cc(-c2ccnc(Nc3ccnc(NC(=O)CN4CCOCC4)c3)n2)cnc1N1CCC2(COC2)C1

>  <IC50>
< 100 nM

$$$$

Okay, next one:
(Q) Suppose we examine the compound Cn1cc(Nc2nccc(-c3cnc(N4CCC[C@@H]4C(N)=O)c(C#N)c3)n2)cn1 ; what IC50 value has been reported?
(A) < 100 nM
